Numbers sourced from paper PMC6364417.

- System: IGR37 cells (parental)
- assayInfo: Kinase inhibitor library screening, PrestoBlue cell viability, 1 or 10 μM, 72 h
- protocolConditions: IGR37 Parental; 10μΜ; 72 h; in %
The class of a record is decided solely by its measured cell viability, IGR37 Parental, 10μΜ; consult b0: < 40; b1: ≥ 40 and < 90; b2: ≥ 90

Consider C#Cc1cccc(Nc2ncnc3cc(OCCOC)c(OCCO)cc23)c1 [OSI-420 (Desmethyl Erlotinib)] . To which cell viability, IGR37 Parental, 10μΜ class does it belong?
b2

Which bin should I file C[C@@H]1CCN(C(=O)CC#N)C[C@@H]1N(C)c1ncnc2[nH]ccc12.O=C(O)CC(O)(CC(=O)O)C(=O)O [Tofacitinib citrate (CP-690550 citrate)] under?
b2

Form: Item = O=C(NOCC(O)CO)c1cc(Br)c(F)c(F)c1Nc1ccc(I)cc1F (stereo not drawn) [PD318088] ; Class = ?
b0

Band assignment needed for COc1cc2ncnc(Nc3cccc(Br)c3)c2cc1OC.Cl [PD153035 HCl] please.
b1

State the band of C=CC(=O)Nc1cccc(Oc2nc(Nc3ccc(N4CCN(C)CC4)cc3)ncc2Cl)c1 [WZ3146]
b1

Which of the defined bands does the recorded cell viability, IGR37 Parental, 10μΜ of CN(c1ncccc1CNc1nc(Nc2ccc3c(c2)CC(=O)N3)ncc1C(F)(F)F)S(C)(=O)=O [PF-00562271] sit within?
b0

For this compound, which bin applies? COc1cc2c(N3CCN(C(=O)Nc4ccc(OC(C)C)cc4)CC3)ncnc2cc1OCCCN1CCCCC1 [Tandutinib (MLN518)]
b2

Categorize the following entry: CNC(=O)c1c(F)cccc1Nc1nc(Nc2cc3c(cc2OC)CCN3C(=O)CN(C)C)nc2[nH]ccc12 [GSK1838705A, reference compound]
b0

Which cell viability, IGR37 Parental, 10μΜ band matches COc1cc2ncnc(Nc3ccc(F)c(Cl)c3)c2cc1NC(=O)/C=C/CN1CCCCC1 [Dacomitinib (PF299804,PF-00299804)] ?
b0

Please let me know in which category the item O=c1cc(N2CCOCC2)oc2c(-c3cccc4c3sc3ccccc34)cccc12 [NU7441(KU-57788)] belongs.
b2

Class for CC(C)(C)c1cc(/C=C(\C#N)C(N)=S)cc(C(C)(C)C)c1O [Tyrphostin AG 879 (AG 879)] ?
b1

Category of O=C(NOCC1CC1)c1ccc(F)c(F)c1Nc1ccc(I)cc1Cl [CI-1040 (PD184352)] :
b0
